Ref: PubChem BioAssay

Assay: drug combination growth inhibition, ovarian cancer – cell-based, oncology-focused library, rucaparib conditional, profiling panel (AID 1508598)
Conditions: patient-derived ovarian cancer cells, CellTiter-Glo viability, 144 h; at 1.25 µM; OCI-C5x cells; without rucaparib; stronger effect = lower value
Active and inactive are the calls of the source.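 How the source made its calls: active means normalized viability below 100% at a tested concentration; inactive means the rest.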
Measured quantity: viability

Example molecules with recorded viability:
O=NN(CCCl)C(=O)NC1CCCCC1; 125% (inactive)
COC(=O)Nc1nc2ccc(C(=O)c3cccs3)cc2[nH]1; 60.1% (active)
O=c1c(O)c(-c2ccc(O)c(O)c2)oc2cc(O)cc(O)c12; 125% (inactive)
CC(c1cc2ccccc2s1)N(O)C(N)=O (stereo unspecified); 124% (inactive)
CC[C@@]1(O)C(=O)OCc2c1cc1n(c2=O)Cc2cc3c(CN(C)C)c(O)ccc3nc2-1; 7.82% (active)
Cn1nnc2c(C(N)=O)ncn2c1=O; 90.4% (active)
Cc1nc(-c2ccc(OCC(C)C)c(C#N)c2)sc1C(=O)O; 118% (inactive)
COc1cc2c(Nc3ccc(Br)cc3F)ncnc2cc1OCC1CCN(C)CC1; 116% (inactive)

Each molecule below has a recorded value; state its viability.
1. NC(=O)NO
2. Cc1cc2c(C(C)C)c(O)c(O)c(C=O)c2c(O)c1-c1c(C)cc2c(C(C)C)c(O)c(O)c(C=O)c2c1O
3. CCC(C)n1ncn(-c2ccc(N3CCN(c4ccc(OC[C@H]5CO[C@](Cn6cncn6)(c6ccc(Cl)cc6Cl)O5)cc4)CC3)cc2)c1=O (stereo partly specified)

1. 116% (inactive)
2. 148% (inactive)
3. 126% (inactive)

---

Experiment: HCT116 colon cancer cell growth inhibition, primary screen, CellTiter-Glo luminescence, NPC library (AID 1117342)
Details: at 20 µM (top of the series)
Activity calls are given as the source filed them.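 Rule for the calls: active = compounds that lower survival of HCT116 colon cancer cells in the luminescence readout, no numeric limit stated; inactive = the rest.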
Measured quantity: inhibition of viability

Example compounds with recorded inhibition of viability:
C[C@@H]1C[C@H]2[C@@H]3CCC4=CC(=O)C=C[C@]4(C)[C@@]3(F)[C@@H](O)C[C@]2(C)[C@@]1(O)C(=O)COP(=O)(O)O; 2.57% (inactive)
CC/C(=C(/CC)c1ccc(O)cc1)c1ccc(O)cc1; 94.3% (active)
OCc1cccnc1; -9.5% (inactive)
COc1cccc(OC)c1C(=O)N[C@@H]1C(=O)N2[C@@H]1SC(C)(C)[C@@H]2C(=O)O; -7% (inactive)
CC(=O)Nc1cccc(O)c1; -14.5% (inactive)

Each compound below has a recorded value; state its inhibition of viability.
1. CN(C)CC/C=C1/c2ccccc2COc2ccc(CC(=O)O)cc21
2. CCN(CC)C(C)CN1c2ccccc2Sc2ccccc21 (stereo unspecified)
3. Nc1[nH]c(=O)ncc1F
4. CCN(CC)Cc1cc(Nc2ccnc3cc(Cl)ccc23)ccc1O
5. CCN1CCC[C@H]1CNC(=O)c1c(O)c(Cl)cc(Cl)c1OC
6. CCN1CCC[C@H]1CNC(=O)c1cc(S(N)(=O)=O)ccc1OC

1. 3.7% (inactive)
2. 69.2% (active)
3. -15.1% (inactive)
4. 83.2% (active)
5. 9.13% (inactive)
6. -5.3% (inactive)

---

Test: growth inhibition, single agents and combos, ICB984, cell-based, cisplatin or BGB combos, synergistic combos for chromothripsis tumors (AID 1671451);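 further: cells exposed for 96 hours before readout; 0% = vehicle DMSO and 100% = killing by high DMSO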
Settings: ICB984 medulloblastoma cells, drug combinations, cisplatin combo, at 0.5 µM, stronger effect = higher value
Output: class label from inhibition. Mapping: lo: < -50%; mid: ≥ -50% and < -20%; hi: ≥ -20%

O=NN(CCCl)C(=O)NCCCl; lo
Cc1oncc1C(=O)Nc1ccc(C(F)(F)F)cc1; hi
Nc1nc2c(ncn2COC(CO)CO)c(=O)[nH]1; mid
Nc1nc(=S)c2[nH]cnc2[nH]1; lo
CC(N)C12CC3CC(CC(C3)C1)C2 (stereo unspecified); lo

Quick check: band for `Cc1ccnc2c1NC(=O)c1cccnc1N2C1CC1`
mid

Quick check: band for `CCn1cc(C(=O)O)c(=O)c2cc3c(cc21)OCO3`
mid

Quick check: band for `C[C@H]1COc2c(C3(N)CC3)c(F)cc3c(=O)c(C(=O)O)cn1c23`
hi

Quick check: band for `CN(C)c1ccc(C(=C2C=CC(=[N+](C)C)C=C2)c2ccc(N(C)C)cc2)cc1`
lo

Quick check: band for `CCN1CCN(c2cc3c(cc2F)c(=O)c(C(=O)O)cn3C2CC2)CC1`
mid

Quick check: band for `Nc1[nH]c(=O)ncc1F`
lo

---

Test: viability loss in pontine glioma line – cell-based, JHH-DIPG-1, MIPE4.0, CellTiter-Glo, qHTS, dose response (AID 1347062)
Details: JHH-DIPG-1 viability, CellTiter-Glo ATP luminescence
Records with an inconclusive call do not appear. Calls of active or inactive are those of the source. Cut-off not given; nearly all actives show AC50 up to about 27 µM.
Response enum: active, inactive

N[C@@H](Cc1ccc(O)c(O)c1)C(=O)O; inactive
COc1ccc(C2CNC(=O)C2)cc1OC1CCCC1 (stereo not given); inactive

With those in mind, consider the next molecule.
Please indicate how the test categorized `CO[C@@H]1[C@@H](OC(N)=O)[C@@H](O)[C@H](Oc2ccc3c(O)c(NC(=O)c4ccc(O)c(CC=C(C)C)c4)c(=O)oc3c2C)OC1(C)C` .
inactive

---

Assay: growth inhibition of DIPG cells – cell-based, MIPE5.0 library, qHTS (AID 1347068)
Settings: SU-DIPG-XXV viability
Results filed as inconclusive are left out. Calls of active or inactive are those of the source. Cut-off not given; nearly all actives show IC50 up to about 30 µM.
Measured quantity: IC50

Example molecules with recorded IC50:
NCC1CCC(C(=O)O)CC1 (stereo unspecified); inactive
CCCCOc1ccc(CC(=O)NO)cc1; inactive
Cc1cnc(NC(=O)C2=C(O)c3ccccc3S(=O)(=O)N2C)s1; inactive
CC(N)C12CC3CC(CC(C3)C1)C2 (stereo unspecified); inactive
NC[C@H](O)c1ccc(O)c(O)c1; inactive

Consider now this further molecule.
Note IC50 for the molecule shown: `CCOC(=O)[C@H](CCc1ccccc1)N[C@@H](C)C(=O)N1[C@H](C(=O)O)C[C@@H]2CCC[C@@H]21`
inactive

---

System: Hepatitis C virus NS3 helicase
Assay: blockers of NS3h binding to ssDNA – biochemical, fluorescence polarization, LOPAC1280 library, primary screen (AID 687035)
Conditions: Purified HCV NS3 helicase, Cy5-dT15 ssDNA binding fluorescence polarization; stronger effect = higher value; concentration not given here
Consider the following compounds; for each one, report its inhibition.
Numbers only, in %.

CC(=O)OCC1=C(C(=O)O)N2C(=O)[C@@H](NC(=O)Cc3cccs3)[C@H]2SC1; 0
C[C@H]1O[C@@H](n2cc(F)c(=O)[nH]c2=O)[C@H](O)[C@@H]1O; -1
O=C1CCc2cc(OCCCCc3nnnn3C3CCCCC3)ccc2N1; -1
Cc1cn([C@H]2C=C[C@@H](CO)O2)c(=O)[nH]c1=O; -2
Nc1ccc(S(=O)(=O)Nc2ccnn2-c2ccccc2)cc1; 1
COc1cc2c(cc1OC)-c1cc(=Nc3c(C)cc(C)cc3C)n(C)c(=O)n1CC2; 1

Note inhibition for the compound shown: `NNc1nncc2ccccc12`
-3

---

System: R275C/beta4
Assay: BK channel mutant inhibitors and activators – cell-based, U2OS BacMam, thallium flux, beta subunits, selectivity assay, profiling panel (AID 1259406);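 further: initial slope of Thallos dye fluorescence rise after thallium is added; log ratio against the mean of 0.3% DMSO vehicle wells on the same plate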
Conditions: U2OS BacMam BK variants, at 30 µM
Calls of active or inactive are those of the source.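 The calls were made as follows: active = thallium flux through the channel raised or lowered by more than 3 SD from vehicle-only wells, actives on both sides; inactive = the rest.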
Response enum: active, inactive

Solved cases (2 shown):
O=C1CC2(CCCC2)CC(=O)N1CCCCN1CCN(c2ncccn2)CC1; inactive
Nc1ccn([C@H]2CC[C@@H](CO)O2)c(=O)n1; inactive

Please indicate how the test categorized `C[C@@H]1CN(CCCn2c3ccccc3c3ccccc32)C[C@H](C)N1` .
active

Please indicate how the test categorized `C#C[C@]1(O)CC[C@H]2[C@@H]3[C@H](C)CC4=C(CCC(=O)C4)[C@H]3CC[C@@]21C` .
inactive

Please indicate how the test categorized `Clc1ccc2nsnc2c1NC1=NCCN1` .
inactive

Please indicate how the test categorized `Cn1c(NCCN(CCO)CCCc2ccc([N+](=O)[O-])cc2)cc(=O)n(C)c1=O` .
inactive

Please indicate how the test categorized `CC(=O)Nc1ccc(CC(=O)O)cc1` .
inactive

---

Consider the following compounds; for each one, report its cell count.
Experiment: compounds altering HSF1 focus formation in cells – imaging, Selleck Cancer Library (AID 1347162)
Conditions: human cells, HSF1 nuclear foci imaging, at 10 µM; measured here: cell number
Numbers only.

Nc1nc(F)nc2c1ncn2[C@@H]1O[C@H](CO)[C@@H](O)[C@@H]1O; 6840
CN(Cc1cnc2nc(N)nc(N)c2n1)c1ccc(C(=O)N[C@@H](CCC(=O)O)C(=O)O)cc1; 7580
C[C@]12CC[C@@H]3c4ccc(O)cc4CC[C@H]3[C@@H]1CCC2=O; 6870
COc1cc2c(Nc3ccc(Br)cc3F)ncnc2cc1OCC1CCN(C)CC1; 4710
CC(C)(C#N)c1cc(Cn2cncn2)cc(C(C)(C)C#N)c1; 7640

Consider now this further compound.
Note cell count for the compound shown: `Cn1nnc2c(C(N)=O)ncn2c1=O`
7070
